What RLU was measured for each of the following?
biological target: T1, human CD71 extracellular domain (human, UniProt P02786 89-760, biotinylated); test: solution ELISA screen (luminescence)
T1 construct: extracellular domain; also called hCD71; huCD71 ECD
T1 sequence (P02786 other isoform, or with tags, fused parts or gaps): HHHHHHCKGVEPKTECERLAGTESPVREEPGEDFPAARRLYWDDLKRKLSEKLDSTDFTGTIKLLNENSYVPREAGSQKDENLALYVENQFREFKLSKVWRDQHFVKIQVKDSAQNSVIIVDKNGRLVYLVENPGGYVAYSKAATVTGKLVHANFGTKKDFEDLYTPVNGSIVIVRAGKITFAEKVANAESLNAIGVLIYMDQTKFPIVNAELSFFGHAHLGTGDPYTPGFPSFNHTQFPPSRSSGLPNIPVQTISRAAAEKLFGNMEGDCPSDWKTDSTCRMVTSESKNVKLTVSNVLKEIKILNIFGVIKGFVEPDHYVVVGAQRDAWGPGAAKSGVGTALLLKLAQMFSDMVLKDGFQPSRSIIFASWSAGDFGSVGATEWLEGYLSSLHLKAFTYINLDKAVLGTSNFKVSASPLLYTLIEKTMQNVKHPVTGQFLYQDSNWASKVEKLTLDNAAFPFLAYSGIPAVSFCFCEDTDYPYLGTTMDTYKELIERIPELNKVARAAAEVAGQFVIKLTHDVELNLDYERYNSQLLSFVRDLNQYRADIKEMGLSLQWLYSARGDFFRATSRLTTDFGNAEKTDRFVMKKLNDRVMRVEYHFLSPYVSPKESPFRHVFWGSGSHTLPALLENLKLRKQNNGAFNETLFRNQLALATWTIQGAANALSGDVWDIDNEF
One number for each entry, in RLU.

Study these solved cases before continuing.
Task: Give the measured RLU of SEQ ID NO 255 (designed binder, not shown: small tags and cut ends) MLPAPKNLVVSRVTEDSARLSWTAPDAAFDSFFIGYLEPQPPGEAILLFVPGSERSYDLTGLKPGTEYNVTIQGVKGGFPSTPLSASFTT .
Result: 5.02e+06

Task: Recorded RLU for SEQ ID NO 221 (designed binder, not shown: small tags and cut ends) MLPAPKNLVVSRVTEDSARLSWTAPDAAFDSFFIGYLEPQPPGEAIFLDVPGSERSYDLTGLKPGTEYNVTIQGVKGGFPSPLTAFFTT , please?
Result: 966000

Task: Look up RLU: SEQ ID NO 242 (designed binder, not shown: small tags and cut ends) MLPAPKNLVVSRVTEDSARLSWTAPDAAFDSFYIAYAEPRPDGEAIQLLVPGSERSYDLTGLKPGTEYSVLIHGVKGGLLSSPLYAAFTT
Result: 648000

Task: // lookup RLU for SEQ ID NO 238 (designed binder, not shown: small tags and cut ends) MLPAPKNLVVSRVTEDSARLSWTTPDAAFDSFYIAYAEPRPDGEAIRLQVPGSERSYDLTGLKPGTEYSVLIHGVKGGLLSSPLGFTT
Result: 3.07e+06

Task: What measured RLU goes with SEQ ID NO 216 (designed binder, not shown: small tags and cut ends) MLPAPKNLVVSRVTEDSARLSWTAPDAAFDSFYIAYAEPRPDGEAISLSVPGSERSYDLTGLKPGTEYSVLIHGVKGGLLSSPPKFTT ?
Result: 4.15e+06

Each of the following entries comes with a recorded value; kindly state RLU for each.
1. SEQ ID NO 208 (designed binder, not shown: small tags and cut ends) MLPAPKNLVVSRVTEDSARLSWTAPDAAFDSFFIGYLEPQPPGEAIVLAVPGSERSYDLTGLKPGTEYNVTIQGVKGGFPSYPLVAAFTT
2. SEQ ID NO 207 (designed binder, not shown: small tags and cut ends) MLPAPKNLVVSRVTEDSARLSWTAPDAAFDSFYIAYAEPRPDGEAIHLSVPGSERSYDLTGLKPGTEYSVLIHGVKGGLLSSPLAAYFTT

Result:
1. 3e+06
2. 2.74e+06

Task: # query: RLU of entry SEQ ID NO 227 (designed binder, not shown: small tags and cut ends) MLPAPKNLVVSRVTEDSARLSWTAPDAAFDSFYIAYAEPRPDGEAIGLRVPGSERSYDLTGLKPGTEYSVLIHGVKGGLLSSPLSAIFTT
Result: 635000
